Reported pKi is given for each of the following molecules.
Biological target: Carbonic anhydrase 1 (Homo sapiens, UniProt P00915)
Sequence (P00915 whole entry): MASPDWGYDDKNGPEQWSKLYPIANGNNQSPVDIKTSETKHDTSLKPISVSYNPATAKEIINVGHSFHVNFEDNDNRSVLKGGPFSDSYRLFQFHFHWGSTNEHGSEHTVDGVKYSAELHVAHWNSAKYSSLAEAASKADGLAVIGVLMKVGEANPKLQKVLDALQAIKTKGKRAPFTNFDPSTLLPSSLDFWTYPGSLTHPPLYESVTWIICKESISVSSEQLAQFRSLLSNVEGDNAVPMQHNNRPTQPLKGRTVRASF
Test: Inhibition of recombinant human carbonic anhydrase 1 preincubated with enzyme for 15 mins by phenol red dye based stopped flow CO2 hydration assay
pKi: −log10 of the molar value.

Would you please look over these solved cases?
{"columns": ["MOLECULE", "pKi"],
 "data": [
  ["O=c1[nH]nc(SCc2ccc(Cl)cc2Cl)c(=O)[nH]1", "< 5.00"],
  ["COc1cc(CC(=O)O)ccc1OS(=O)(=O)O", "< 5.00"]
]}

Next up:
Recorded pKi of `Nc1ccc2c(n1)[nH]c1ccccc12` , please. < 5.00

----------
Molecular target: Carbonic anhydrase 5A, mitochondrial (Homo sapiens, UniProt P35218)
Sequence (P35218 whole entry): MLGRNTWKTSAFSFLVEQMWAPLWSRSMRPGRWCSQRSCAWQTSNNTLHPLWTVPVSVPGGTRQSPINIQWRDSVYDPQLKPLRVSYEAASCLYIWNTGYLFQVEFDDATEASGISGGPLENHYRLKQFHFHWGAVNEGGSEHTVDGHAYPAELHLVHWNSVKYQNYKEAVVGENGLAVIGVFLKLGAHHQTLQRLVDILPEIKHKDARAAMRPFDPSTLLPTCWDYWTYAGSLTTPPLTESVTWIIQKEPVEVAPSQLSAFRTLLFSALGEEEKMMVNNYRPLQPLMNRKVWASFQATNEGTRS
Experiment: Inhibition of recombinant human carbonic anhydrase VA preincubated with enzyme for 15 mins by phenol red dye based stopped flow CO2 hydration assay
Reported pKi by item:
For clarity, pKi is expressed as the negative log10 of concentration in mol/L.

Example entries begin here.
{"columns": ["MOLECULE", "pKi"],
 "data": [
  ["Nc1nc(=O)c2nc(CNc3ccc(C(=O)N[C@H](CCC(=O)O)C(=O)O)cc3)cnc2[nH]1", 5.01],
  ["O=C(Cc1nnc(O)nc1O)N/N=C/c1c(O)ccc2ccccc12", 5.06],
  ["NC(=O)c1cn(Cc2c(F)cccc2F)nn1 [RUFINAMIDE]", 6.46],
  ["COc1cc2nccc(Oc3ccc(NC(=O)NC4CC4)c(Cl)c3)c2cc1C(N)=O", 6.88]
]}

Proceeding to the next molecule to report its pKi.
What does the record list as pKi for Nc1nc(F)nc2c1ncn2[C@@H]1O[C@H](COP(=O)(O)O)[C@@H](O)[C@@H]1O [FLUDARABINE PHOSPHATE] ? 6.88
